So I've got a bunch of molecules here, and I need their ED50 values.
System: mice
protocol_details: rotating rod test in mice (sedative/muscle relaxant properties), i.v.
Assay type: in vivo, mouse
assay_conditions: Mus musculus, iv, 0.5 h, minimum time 60 sec, 30 min after administration

Consider the following illustrative entries.
C=CCNCc1c(CO)nc2n1-c1ccc(Cl)cc1C(c1ccccc1F)=NC2 [D] ... ≥ 10 mg/kg
OCc1cn2c(n1)CN=C(c1ccccc1Cl)c1cc(Cl)ccc1-2 [E] ... ≥ 3.2 mg/kg
CC(=O)OCc1cn2c(n1)CN=C(c1ccccc1F)c1cc(Cl)sc1-2 [B] ... ≥ 10 mg/kg

Inquiry: Need ED50, item OCc1cn2c(n1)CN=C(c1ccccc1F)c1cc(I)ccc1-2 [H]
Reply text: ≥ 1 mg/kg
